FYI, the data here is from patent US9745321B2.

- measurement.target: PI3Kδ (Homo sapiens (Human), UniProt O00329)
- Sequence (O00329 whole entry): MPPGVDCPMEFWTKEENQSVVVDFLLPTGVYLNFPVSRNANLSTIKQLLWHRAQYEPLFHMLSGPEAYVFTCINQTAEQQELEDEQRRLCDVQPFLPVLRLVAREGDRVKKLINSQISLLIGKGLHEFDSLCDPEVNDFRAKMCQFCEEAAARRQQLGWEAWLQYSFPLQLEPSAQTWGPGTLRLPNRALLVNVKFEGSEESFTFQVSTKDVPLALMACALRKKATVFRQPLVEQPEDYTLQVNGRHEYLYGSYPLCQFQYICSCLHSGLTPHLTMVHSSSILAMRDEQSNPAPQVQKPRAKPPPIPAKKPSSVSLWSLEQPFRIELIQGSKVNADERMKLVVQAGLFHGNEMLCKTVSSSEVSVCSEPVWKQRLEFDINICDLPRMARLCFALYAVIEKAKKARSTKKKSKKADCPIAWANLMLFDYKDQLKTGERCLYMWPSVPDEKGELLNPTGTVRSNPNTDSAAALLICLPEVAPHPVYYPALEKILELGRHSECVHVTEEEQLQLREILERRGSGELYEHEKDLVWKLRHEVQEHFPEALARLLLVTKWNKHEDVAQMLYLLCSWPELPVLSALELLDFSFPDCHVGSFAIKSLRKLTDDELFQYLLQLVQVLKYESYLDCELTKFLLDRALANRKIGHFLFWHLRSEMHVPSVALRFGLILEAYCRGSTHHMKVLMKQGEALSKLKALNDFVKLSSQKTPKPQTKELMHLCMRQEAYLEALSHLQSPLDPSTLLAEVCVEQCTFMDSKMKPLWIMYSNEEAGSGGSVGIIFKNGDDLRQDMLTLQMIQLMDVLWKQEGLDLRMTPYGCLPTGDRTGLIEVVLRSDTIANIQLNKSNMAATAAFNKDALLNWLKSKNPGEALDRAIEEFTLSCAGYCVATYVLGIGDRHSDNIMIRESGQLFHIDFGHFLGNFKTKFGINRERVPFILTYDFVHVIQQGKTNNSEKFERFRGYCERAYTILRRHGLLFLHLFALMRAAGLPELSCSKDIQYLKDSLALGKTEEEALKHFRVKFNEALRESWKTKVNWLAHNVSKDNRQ
- Sequence (P27986 whole entry partner): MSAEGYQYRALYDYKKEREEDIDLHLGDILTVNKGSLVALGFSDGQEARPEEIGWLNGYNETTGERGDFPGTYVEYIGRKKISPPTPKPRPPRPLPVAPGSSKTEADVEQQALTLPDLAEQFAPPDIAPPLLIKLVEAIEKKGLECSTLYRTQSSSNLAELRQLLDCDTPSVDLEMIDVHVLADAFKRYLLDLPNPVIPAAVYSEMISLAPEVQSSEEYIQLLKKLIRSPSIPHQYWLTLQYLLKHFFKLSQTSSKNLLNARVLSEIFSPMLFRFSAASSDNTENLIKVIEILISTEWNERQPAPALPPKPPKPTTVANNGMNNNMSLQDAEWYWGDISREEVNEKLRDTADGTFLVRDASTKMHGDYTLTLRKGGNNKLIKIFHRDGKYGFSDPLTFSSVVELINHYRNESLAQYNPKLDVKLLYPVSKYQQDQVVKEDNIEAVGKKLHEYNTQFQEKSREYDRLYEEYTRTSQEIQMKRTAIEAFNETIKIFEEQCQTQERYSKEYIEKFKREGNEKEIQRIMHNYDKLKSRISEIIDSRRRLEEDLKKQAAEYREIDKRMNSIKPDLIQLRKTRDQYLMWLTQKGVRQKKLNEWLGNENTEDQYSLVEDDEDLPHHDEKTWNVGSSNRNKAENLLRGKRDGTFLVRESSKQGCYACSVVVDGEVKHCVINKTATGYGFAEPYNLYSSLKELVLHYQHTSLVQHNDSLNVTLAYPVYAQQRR
pIC50: −log10 of the molar value.
Use 8 as the dividing line for pIC50, with the line itself on the True side and lower values as False.

Record excerpt, results attached:
1. COc1ncc(-c2nc(N3CCOCC3)nc3c(CN4CCN(S(C)(=O)=O)CC4)c(C)sc23)cc1NS(C)(=O)=O [Compound 61]: True
2. COc1ncc(-c2nc(N3CCOCC3)nc3c(CN4CCn5cnnc5C4)c(C)sc23)cc1NS(C)(=O)=O [Compound 116]: True
3. c1cc(-c2nc(N3CCOCC3)nc3c(CN4CCC(N5CCOCC5)CC4)csc23)c2cc[nH]c2c1 [Compound 9]: False
4. COc1ncc(-c2nc(N3CCOCC3)nc3c(CN4CCN(C(C)=O)CC4)csc23)cc1NS(C)(=O)=O [Compound 32]: True

Q. I'd appreciate it if you could say whether COc1ncc(-c2nc(N3CCOCC3)nc3c(CN4CCN(C)CC4)csc23)cc1NS(=O)(=O)C1CC1 [Compound 69] has pIC50 at least equal to 8.
A. False
